Taken from patent US20060121042A1.

- measured_on: T1, r murine EphA7 (mouse, UniProt Q61772)
- T1 construct: recombinant Fc fusion (R&D Systems); also called rmuEphA7-Fc; mEphA7
- T1 sequence (receptor-Fc fusion, looked up): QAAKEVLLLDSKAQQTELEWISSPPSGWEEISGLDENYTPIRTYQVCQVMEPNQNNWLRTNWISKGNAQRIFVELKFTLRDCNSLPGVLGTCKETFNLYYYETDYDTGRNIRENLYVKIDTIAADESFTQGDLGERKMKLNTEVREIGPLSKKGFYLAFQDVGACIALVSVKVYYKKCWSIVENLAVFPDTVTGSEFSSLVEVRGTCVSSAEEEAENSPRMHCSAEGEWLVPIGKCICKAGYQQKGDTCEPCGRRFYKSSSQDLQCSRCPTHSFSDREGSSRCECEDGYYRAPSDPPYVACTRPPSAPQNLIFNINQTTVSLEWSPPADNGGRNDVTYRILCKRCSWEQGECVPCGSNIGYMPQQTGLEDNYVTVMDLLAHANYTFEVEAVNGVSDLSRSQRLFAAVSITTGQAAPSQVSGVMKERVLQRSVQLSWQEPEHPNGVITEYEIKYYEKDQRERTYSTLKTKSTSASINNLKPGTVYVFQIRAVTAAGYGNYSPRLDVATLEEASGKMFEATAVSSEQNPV
- run_description: activity ELISA, Fab on coated antigen
observed_property: binding result

• 1B10 Fab (affinity optimized combinatorial variant of Fab20) (Fab, V domains shown) VH: QVQLLQSGAEVKKPGASVKVPCKASGYTFTSRAMSWVRQAPGQGLEWMGWINTNTGNPTYAQGFTGRFVFSLDTSVSTAYLQISSLKAEDTAVYYCARVRFTVYGDGMDVWGQGTLVTVSS VL: EIVLTQSPATLSVSPGERATLSCRASQSVSSNPAWYQQKPGQAPRLLIYGASTWATGIPDRFSASGSGTDFTLTISRVEPEDFAVYYCQQYGPSWTFGQGTKVEIK = binds
• 3C6 Fab (affinity optimized combinatorial variant of Fab20) (Fab, V domains shown) VH: QVQLLQSGAEVKKPGASVKVPCKASGYTFTSRAMSWVRQAPGQGLEWMGWINTNTGNPTYAQGFTGRFVFSLDTSVSTAYLQISSLKAEDTAVYYCARVRLTVYGDGMDVWGQGTLVTVSS VL: EIVLTQSPATLSVSPGERATLSCRASQSVSSNPPWYQQKPGQAPRLLIYGASTRATGIPDRFSASGSGTDFTLTISRVEPEDFAVYYCQQYGSSWTFGQGTKVEIK = binds
